Values from paper PMC5155426

Entries and their Peak current ratio values follow.
- method.description: Cyclic voltammetry: formal redox potential, peak current ratio, electrochemical reversibility
- Format: physicochemical
- cond: pH 13

compound | Peak current ratio
O=C1c2ccc(O)c(O)c2C(=O)c2c(O)ccc(O)c21 [AQTH(1,2), 1,2,5,8-tetrahydroxy-9,10-anthraquinone] | 0.96(6)
O=C1c2ccccc2C(=O)c2c1cc(S(=O)(=O)O)c(O)c2O [AQS(2)DH] | 1.1(1)
O=C1C(O)=C(Cl)C(=O)C(O)=C1Cl [BQ(1,4)DHDCl, 2,5-dichloro-3,6-1,4-benzoquinone] | 0.8(2)

Data request: Suppose we examine the compound O=C1c2cccc(S(=O)(=O)[O-])c2C(=O)c2c1cccc2S(=O)(=O)[O-].[K+].[K+] [AQDS(1,8)] ; what Peak current ratio value has been reported?
Data returned: 1.0(3)

====

- method.description: Cyclic voltammetry: formal redox potential, peak current ratio, electrochemical reversibility
- Format: physicochemical
- cond: pH not specified
- Procedure: The investigated compounds were used as-purchased and without any purification. […] For each series of CVs, a freshly polished electrode was used. The CVs for soluble compounds in 1 mM concentration were recorded in a glass beaker with a customized lid in nitrogen purged solutions of three different pHs, namely pH 0 (1 M H2SO4), pH 7 (0.5 M phosphate buffer) and pH 13 (1 M NaOH). […] A background CV was recorded before each CV experiment to exclude background contaminations. […]
measurement.name: Electrochemical reversibility

compound | Electrochemical reversibility
Nc1c(S(=O)(=O)[O-])cc(Br)c2c1C(=O)c1ccccc1C2=O.[Na+] | Quasireversible
Oc1c(F)c(F)c(O)c(F)c1F [HQ(1,4)TF, 1,2,4,5-tetrafluoro-3,6-dihydroxybenzene] | Quasireversible
Oc1c(Cl)c(Cl)c(O)c(Cl)c1Cl [HQ(1,4)TCl, Tetrachloro hydroquinone] | Quasireversible
Cc1cc(O)c2c(c1)C(=O)c1cc(O)cc(O)c1C2=O | Reversible
O=S(=O)([O-])c1cc(O)ccc1O.[K+] [HQ(1,4)S, 2,5-dihydroxybenzenesulfonate potassium] | Quasireversible

Data request: Suppose we examine the compound O=C1C=C(S(=O)(=O)O)c2ccccc2C1=O [NQ(1,2)S, 1,2-naphtoquinone-4-sulfonate sodium] ; what Electrochemical reversibility value has been reported?
Data returned: Quasireversible

Data request: Consider next the compound O=C1c2ccccc2C(=O)c2cc(S(=O)(=O)O)ccc21 [AQS(2), 9,10-anthraquinone-2-sulfonate sodium] in the same way.
Data returned: Reversible

Data request: Consider next the compound O=S(=O)(O)c1cc(O)c(O)c(S(=O)(=O)O)c1 in the same way.
Data returned: Quasireversible

Data request: Consider next the compound O=C1C=C(O)C(=O)C=C1O [BQ(1,4)DH, 2,5-dihydroxy-1,4-benzoquinone] in the same way.
Data returned: Quasireversible

Data request: Consider next the compound O=C1C=C(O)C(=O)c2ccccc21 [NQ(1,4)H, 2-hydroxy-1,4-naphtoquinone] in the same way.
Data returned: Quasireversible

====

Entries and their solubility values follow.
- method.description: Aqueous solubility estimation (OECD test #105) in 1 M supporting electrolytes
- cond: 1 M KCl supporting electrolyte prepared from MilliQ water, saline or isotonic, thermodynamic from solid, Solubility, 1 M KCl, room temperature

compound | measurement.name | recorded.value
O=C1c2ccc(O)c(O)c2C(=O)c2c(O)ccc(O)c21 [AQTH(1,2), 1,2,5,8-tetrahydroxy-9,10-anthraquinone] | solubility | < 10 mM

Data request: Suppose we examine the compound O=C(O)c1cnccn1 ; what solubility value has been reported?
Data returned: 80 mM

Data request: Consider next the compound O=C(O)c1cc(O)c2c(c1)C(=O)c1cccc(O)c1C2=O in the same way.
Data returned: < 10 mM

Data request: Consider next the compound O=C1c2ccccc2C(=O)c2c1ccc(O)c2O [AQDH(1,2), 1,2-dihydroxy-9,10-anthraquinone] in the same way.
Data returned: < 10 mM
